System: MV4-11 cells
protocolDetails: Cell growth, resazurin fluorescence assay
Type: cell-based
conditionDetails: Homo sapiens, MV4-11, 72 h; 3 days, preliminary
Experimental: Cell growth was followed via the resazurin (alamar blue) fluorescence assay. At day −1, cells were seeded in 100 μL media at a density of 4×10^3 cells/well in 96-well plates and incubated overnight at 37° C. […] Cultures were performed during 3 days after the addition of the drugs. At day 3, Resazurin (0.1 mg/mL, Sigma-Aldrich) was added at 20 μL/well, and plates were incubated for 4 h at 37° C., then fluorescence (Aex=529.5 nm, Aem =582 nm) was measured using ClarioStar™ microplate reader. […]
pIC50: −log10 of the molar value.
recordedMetric: pIC50

Lookup result for C[C@@H]1CCC2[C@@H](C)[C@H](OC(=O)CCC(=O)O)OC3O[C@@]4(C)CCC1[C@]32OO4 (stereo partly shown) [untreated artesunate, Artesunate] ; measured pIC50: 6.30 to 6.60

FYI, the data here is from patent US20230133037A1.
